The values you see were collected from patent US11028051B2.

- experimental_system: BRD2-BD1 (Homo sapiens (Human))
- method_description: competitive TR-FRET assay, BET-BD with acetylated peptide ligand
- Format: binding
- condition_summary: BRD2-BD1; Table 11 additional modifications; read-out: 2.1 EC50
Entries and their measured log10 of EC50 follow.
readout_label: log10 of EC50 (log10 of the value in µM)

compound: CC(=O)N1c2ccc(C3=CCCO3)cc2[C@H](NC(=O)OC(C)C)C[C@@H]1C [compound 85]
readout_label: log10 of EC50
observed: 1.11
//
compound: CC(=O)N1c2ccc(-c3cccn(C)c3=O)cc2[C@H](NC(=O)OC(C)C)C[C@@H]1C [compound 87]
readout_label: log10 of EC50
observed: 1.83
//
compound: CC(=O)N1c2ccc(-c3cc4ccccc4o3)cc2[C@H](NC(=O)OC(C)C)C[C@@H]1C [compound 86]
readout_label: log10 of EC50
observed: 0.26
//
compound: CC(=O)N1c2ccc(-c3cccc(N(CCC(C)C)CCC(C)C)c3)cc2[C@H](Nc2ccccc2OC(F)(F)F)C[C@@H]1C [compound 148]
readout_label: log10 of EC50
observed: 1.95
//
compound: CC(=O)Nc1cccc(-c2ccc3c(c2)[C@H](Nc2ccc(-c4nnn(C)n4)cc2)C[C@H](C)N3C(C)=O)c1 [compound 27]
readout_label: log10 of EC50
observed: -0.66
//
compound: CC(=O)N1c2ccc(-c3ccnn3C)cc2[C@H](NC(=O)OC(C)C)C[C@@H]1C [compound 97]
readout_label: log10 of EC50
observed: 2.00
//
compound: CC(=O)Nc1cccc(-c2ccc3c(c2)[C@H](Nc2ccc(C#N)cc2C)C[C@H](C)N3C(C)=O)c1 [compound 199]
readout_label: log10 of EC50
observed: -0.05

====

- experimental_system: UniProt:Q58F21
- method_description: BROMOscan KD determination
- condition_summary: BROMOscan, Table 10
pKd: −log10 of the molar value.
# cutoff 8 applies to pKd; >= gives Satisfied, < gives Not satisfied

molecule: COC(=O)c1ccc(N[C@@H]2C[C@H](C)N(C(C)=O)c3ccc(-c4ccnn4C)cc32)cc1 [compound 49]
experimental_system: UniProt:Q58F21
assigned_class: Satisfied

molecule: COC(=O)c1ccc(N[C@@H]2C[C@H](C)N(C(C)=O)c3ccc(-c4cccc(NC(C)=O)c4)cc32)cc1 [compound 4]
experimental_system: UniProt:Q58F21
assigned_class: Satisfied

molecule: CC(=O)Nc1cccc(-c2ccc3c(c2)[C@H](Nc2ccccc2C(F)(F)F)C[C@H](C)N3C(C)=O)c1 [compound 41]
experimental_system: UniProt:Q58F21
assigned_class: Not satisfied

molecule: CC(=O)N1c2ccc(-c3ccc(C(=O)O)cc3)cc2[C@H](Nc2ccc(Cl)cc2)C[C@@H]1C [GSK-726, IBET-726, reference compound]
experimental_system: UniProt:Q58F21
assigned_class: Satisfied

molecule: CCCOc1cccc(-c2ccc3c(c2)[C@H](Nc2ccc(C(=O)OC)cc2)C[C@H](C)N3C(C)=O)c1 [compound 56]
experimental_system: UniProt:Q58F21
assigned_class: Not satisfied

molecule: CC(=O)N1c2ccc(-c3cccc(-n4cccn4)c3)cc2[C@H](Nc2ccc(Cl)cc2)C[C@@H]1C [compound 136]
experimental_system: UniProt:Q58F21
assigned_class: Not satisfied

====

- experimental_system: BRD2-BD1 (Homo sapiens (Human), UniProt P25440)
- Sequence (P25440 74-180): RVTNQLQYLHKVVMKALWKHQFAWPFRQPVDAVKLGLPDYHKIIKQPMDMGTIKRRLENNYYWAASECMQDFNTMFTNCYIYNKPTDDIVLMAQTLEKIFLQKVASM
- method_description: competitive TR-FRET assay, BET-BD with acetylated peptide ligand
- Format: binding
- condition_summary: BRD2-BD1; Table 11 additional modifications; read-out: 2.1 EC50
pEC50: −log10 of the molar value.
Listed here are molecules together with their documented pEC50.
readout_label: pEC50

chemical_smiles: CC(=O)N1c2ccc(-c3cccc(NS(C)(=O)=O)c3)cc2[C@H](NC(=O)OC(C)C)C[C@@H]1C
readout_label: pEC50
observed: 6.24
//
chemical_smiles: CC(=O)Nc1cccc(-c2ccc3c(c2)[C@H](Nc2ccc(C#N)c(C(F)(F)F)c2)C[C@H](C)N3C(C)=O)c1
readout_label: pEC50
observed: 5.32
//
chemical_smiles: CC(=O)N1c2ccc(-c3cccc(-n4cccn4)c3)cc2[C@H](Nc2ccccc2OC(F)(F)F)C[C@@H]1C
readout_label: pEC50
observed: 4.68

====

- experimental_system: BRD3-BD1 (Homo sapiens (Human))
- Sequence (Q15059 34-140): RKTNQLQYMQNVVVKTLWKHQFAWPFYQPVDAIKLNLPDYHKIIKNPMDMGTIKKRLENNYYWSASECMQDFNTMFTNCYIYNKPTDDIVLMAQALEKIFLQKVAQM
- method_description: competitive TR-FRET assay, BET-BD with acetylated peptide ligand
- Type: binding
- condition_summary: BRD3-BD1; Table 11 additional modifications; read-out: 3.1 EC50
Reported EC50 is given for each of the following molecules.
readout_label: EC50 (µM)

chemical_smiles: CC(=O)N1c2ccc(-c3cc4ccccc4o3)cc2[C@H](NC(=O)OC(C)C)C[C@@H]1C
scale_unit: µM
observed: 1

chemical_smiles: CCCOc1cccc(-c2ccc3c(c2)[C@H](Nc2ccc(C(=O)OC)cc2)C[C@H](C)N3C(C)=O)c1
scale_unit: µM
observed: 8.1

chemical_smiles: CC(=O)Nc1cccc(-c2ccc3c(c2)[C@H](N)C[C@H](C)N3C(C)=O)c1
scale_unit: µM
observed: 10

chemical_smiles: COc1ccc(N[C@@H]2C[C@H](C)N(C(C)=O)c3ccc(-c4cccc(NC(C)=O)c4)cc32)cc1
scale_unit: µM
observed: 1.5

====

- experimental_system: BRD2-BD1 (Homo sapiens (Human), UniProt P25440)
- method_description: competitive TR-FRET assay, BET-BD with acetylated peptide ligand
- Format: binding
- condition_summary: Table 6; read-out: EC50 (μM) BRD2(1)

compound: CCCCNc1cccc(-c2ccc3c(c2)[C@H](Nc2ccc(C(=O)OC)cc2)C[C@H](C)N3C(C)=O)c1 [compound 45]
experimental_system: BRD2-BD1 (Homo sapiens (Human), UniProt P25440)
EC50 [µM]: 2.6
//
compound: CC(=O)N1c2ccc(-c3ccc(C(=O)O)cc3)cc2[C@H](Nc2ccc(Cl)cc2)C[C@@H]1C [GSK-726, IBET-726, reference compound]
experimental_system: BRD2-BD1 (Homo sapiens (Human), UniProt P25440)
EC50 [µM]: 1.3
//
compound: CCCCCNc1cccc(-c2ccc3c(c2)[C@H](Nc2ccc(C(=O)OC)cc2)C[C@H](C)N3C(C)=O)c1 [compound 44]
experimental_system: BRD2-BD1 (Homo sapiens (Human), UniProt P25440)
EC50 [µM]: 2.7
//
compound: COC(=O)c1ccc(N[C@@H]2C[C@H](C)N(C(C)=O)c3ccc(-c4cccc(NCCC(F)(F)F)c4)cc32)cc1 [compound 47]
experimental_system: BRD2-BD1 (Homo sapiens (Human), UniProt P25440)
EC50 [µM]: 2.3
//
compound: COC(=O)c1ccc(N[C@@H]2C[C@H](C)N(C(C)=O)c3ccc(-c4cccc(NCc5ccoc5)c4)cc32)cc1 [compound 43]
experimental_system: BRD2-BD1 (Homo sapiens (Human), UniProt P25440)
EC50 [µM]: 0.51
//
compound: CCCNc1cccc(-c2ccc3c(c2)[C@H](Nc2ccc(C(=O)OC)cc2)C[C@H](C)N3C(C)=O)c1 [compound 46]
experimental_system: BRD2-BD1 (Homo sapiens (Human), UniProt P25440)
EC50 [µM]: 1.3
//
compound: COC(=O)c1ccc(N[C@@H]2C[C@H](C)N(C(C)=O)c3ccc(-c4cccc(NC(C)=O)c4)cc32)cc1 [compound 4]
experimental_system: BRD2-BD1 (Homo sapiens (Human), UniProt P25440)
EC50 [µM]: 1.56

====

- experimental_system: BRD4-BD2 (Homo sapiens (Human))
- method_description: competitive TR-FRET assay, BET-BD with acetylated peptide ligand
- Type: binding
- condition_summary: BRD4-BD2; Table 11 additional modifications; read-out: 4.2 EC50
- Description: Inhibitor potency was determined using a competitive TR-FRET assay as detailed herein, measuring interaction of the respective BET-BD with an acetylated peptide ligand (Table 2).
pEC50: −log10 of the molar value.
readout_label: pEC50

molecule: CC(=O)Nc1cccc(-c2ccc3c(c2)[C@H](NC(=O)CC(C)C)C[C@H](C)N3C(C)=O)c1
observed: 4.72
//
molecule: CCC(=O)N[C@@H]1C[C@H](C)N(C(C)=O)c2ccc(-c3cccc(NC(C)=O)c3)cc21
observed: 4.96
//
molecule: CC(=O)Nc1cccc(-c2ccc3c(c2)[C@H](NC(=O)CCc2ccccc2)C[C@H](C)N3C(C)=O)c1
observed: 4.11
//
molecule: CC(=O)N1c2ccc(-c3cccc(CN)c3)cc2[C@H](NC(=O)OC(C)C)C[C@@H]1C
observed: 6.19
//
molecule: CC(=O)Nc1cccc(-c2ccc3c(c2)[C@H](NC(=O)c2ccc(F)cc2)C[C@H](C)N3C(C)=O)c1
observed: 4.70
//
molecule: CC(=O)Nc1cccc(-c2ccc3c(c2)[C@H](NC(=O)C(C)C)C[C@H](C)N3C(C)=O)c1 [compound 65]
observed: 5.11
//
molecule: CC(=O)N1c2ccc(-c3ccc4cc[nH]c4c3)cc2[C@H](NC(=O)OC(C)C)C[C@@H]1C
observed: 5.06
//
molecule: CC(=O)Nc1cccc(-c2ccc3c(c2)[C@H](NC(=O)c2ccccc2)C[C@H](C)N3C(C)=O)c1
observed: 4.39
//
molecule: CC(=O)N1c2ccc(-c3coc4ccccc34)cc2[C@H](NC(=O)OC(C)C)C[C@@H]1C
observed: 4.25
//
molecule: CC(=O)Nc1cccc(-c2ccc3c(c2)[C@H](Nc2cncnc2)C[C@H](C)N3C(C)=O)c1
observed: 5.72
//
molecule: CC(=O)Nc1cccc(-c2ccc3c(c2)[C@H](NCCCc2ccccc2)C[C@H](C)N3C(C)=O)c1
observed: 4.59
//
molecule: COc1ccc(-c2ccc3c(c2)[C@H](NC(=O)OC(C)C)C[C@H](C)N3C(C)=O)cc1
observed: 5.68
//
molecule: CC(=O)Nc1cccc(-c2ccc3c(c2)[C@H](NC(=O)c2ccc(Cl)cc2)C[C@H](C)N3C(C)=O)c1
observed: 4.29
//
molecule: CC(=O)Nc1ccc(N[C@@H]2C[C@H](C)N(C(C)=O)c3ccc(-c4cccc(NC(C)=O)c4)cc32)cc1
observed: 6.19
//
molecule: CC(=O)Nc1cccc(-c2ccc3c(c2)[C@H](NC(=O)OC(C)C)C[C@H](C)N3C(C)=O)c1
observed: 6.64
//
molecule: COc1cccc(N[C@@H]2C[C@H](C)N(C(C)=O)c3ccc(-c4cccc(NC(C)=O)c4)cc32)c1
observed: 7.40
//
molecule: COc1ccc(C(=O)N[C@@H]2C[C@H](C)N(C(C)=O)c3ccc(-c4cccc(NC(C)=O)c4)cc32)cc1
observed: 4.11
//
molecule: COC(=O)c1cccc(N[C@@H]2C[C@H](C)N(C(C)=O)c3ccc(-c4cccc(NC(C)=O)c4)cc32)c1
observed: 4.09
//
molecule: CC(=O)Nc1cccc(-c2ccc3c(c2)[C@H](Nc2ccc4c(c2)OCO4)C[C@H](C)N3C(C)=O)c1
observed: 7.22
//
molecule: COc1ccccc1-c1ccc2c(c1)[C@H](NC(=O)OC(C)C)C[C@H](C)N2C(C)=O
observed: 4.85
//
molecule: CC(=O)Nc1cccc(-c2ccc3c(c2)[C@H](NCc2ccccc2)C[C@H](C)N3C(C)=O)c1
observed: 5.12
//
molecule: CC(=O)Nc1cccc(-c2ccc3c(c2)[C@H](NCc2ccc(C(F)(F)F)cc2)C[C@H](C)N3C(C)=O)c1
observed: 4.28
//
molecule: CC(=O)N1c2ccc(-c3cccc(CCO)c3)cc2[C@H](NC(=O)OC(C)C)C[C@@H]1C
observed: 5.77
//
molecule: CC(=O)Nc1cccc(-c2ccc3c(c2)[C@H](Nc2ccc(N(C)C)cc2)C[C@H](C)N3C(C)=O)c1
observed: 6.68
//
molecule: CNCc1ccc(N[C@@H]2C[C@H](C)N(C(C)=O)c3ccc(-c4cccc(NC(C)=O)c4)cc32)cc1
observed: 6.49
//
molecule: CC(=O)Nc1cccc(-c2ccc3c(c2)[C@H](NC(=O)Cc2ccccc2)C[C@H](C)N3C(C)=O)c1
observed: 5.00
//
molecule: CC(=O)Nc1cccc(-c2ccc3c(c2)[C@H](Nc2ccc(C(=O)O)cc2)C[C@H](C)N3C(C)=O)c1
observed: 6.77
//
molecule: COC(=O)c1ccccc1N[C@@H]1C[C@H](C)N(C(C)=O)c2ccc(-c3cccc(NC(C)=O)c3)cc21
observed: 7.00
